- measurement target: HIV pol protease (Human immunodeficiency virus type 1 group M subtype B)
- assay summary: Assay of the inhibition of HIV pol protease (synthetic substrate TE-2, HPLC of TE-3)
pKi: −log10 of the molar value. Structures can show the parent of a compound that is named as a salt.
assay readout: pKi

| molecule | measurement target | assay readout | reported measurement |
| --- | --- | --- | --- |
| CC(C)(C)NC(=O)[C@@H]1CCCN1C(=O)[C@@H](O)[C@H](Cc1ccccc1)NC(=O)[C@H](CC(N)=O)NC(=O)COc1ccc(N)cc1 [Example 17, hydrochloride] | HIV pol protease (Human immunodeficiency virus type 1 group M subtype B) | pKi | 7.73 |
| CC(C)(C)NC(=O)[C@@H]1CCCN1C(=O)[C@@H](O)[C@H](Cc1ccccc1)NC(=O)[C@H](CC(N)=O)NC(=O)COc1ccc(NC(=O)OCc2ccccc2)cc1 | HIV pol protease (Human immunodeficiency virus type 1 group M subtype B) | pKi | 7.85 |
| CC(C)(C)NC(=O)[C@@H]1CCCN1C(=O)[C@@H](O)[C@H](Cc1ccccc1)NC(=O)[C@H](CC(N)=O)NC(=O)COc1ccc(NC(=O)CN)cc1 [Example 18, hydrochloride] | HIV pol protease (Human immunodeficiency virus type 1 group M subtype B) | pKi | 7.52 |

###

Reported log10(Ki) values follow for various compounds
- measurement target: HIV pol protease (Human immunodeficiency virus type 1 group M subtype B, UniProt P03366)
- assay summary: Assay of the inhibition of HIV pol protease (synthetic substrate TE-2, HPLC of TE-3)
Where a name gives a salt, the structure may show the parent alone.
assay readout: log10(Ki) (log10 of the value in nM)

| compound | log10(Ki) |
| --- | --- |
| CNc1ccc(OCC(=O)N[C@@H](CC(N)=O)C(=O)N[C@@H](Cc2ccccc2)[C@H](O)C(=O)N2CCC[C@H]2C(=O)NC(C)(C)C)cc1 [Example 20, hydrochloride] | 1.69 |
| CC(C)(C)NC(=O)[C@@H]1C[C@H](Cl)CN1C(=O)[C@@H](O)[C@H](Cc1ccccc1)NC(=O)[C@H](CC(N)=O)NC(=O)OCc1ccccc1 [Example 1] | 0.90 |
| CC(C)(C)NC(=O)[C@@H]1C[C@H](Cl)CN1C(=O)[C@@H](O)[C@H](Cc1ccccc1)NC(=O)[C@H](CC(N)=O)NC(=O)c1cnc2ccccc2n1 [Example 14] | 0.67 |
| CN(C)c1ccc(OCC(=O)N[C@@H](CC(N)=O)C(=O)N[C@@H](Cc2ccccc2)[C@H](O)C(=O)N2CCC[C@H]2C(=O)NC(C)(C)C)cc1 [Example 21] | 1.57 |
| CC(C)(C)NC(=O)[C@@H]1C[C@@H](O)CN1C(=O)[C@@H](O)[C@H](Cc1ccccc1)NC(=O)[C@H](CC(N)=O)NC(=O)OCc1ccccc1 [Example 4] | 1.75 |
